Reference source for all entries: the supplement of paper PMC6757056

B1: library; a variant is named by its letters at N, in order (parent)
chain: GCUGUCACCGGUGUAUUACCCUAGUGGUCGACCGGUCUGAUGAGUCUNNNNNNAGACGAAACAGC

Variants of: B1
Assay: FACS-Seq fitted mean relative fluorescence mCherry/BFP without ligand (log10 relative fluorescence); ligand: hypoxanthine (xanthine aptamer); higher = higher reporter protein expression
Settings: HEK293T, ligand present: no
metric: FACS-Seq fitted mean (log10)
Numbers only.

Please state, for each entry, its recorded FACS-Seq fitted mean (log10).
1. CCGUGU
2. ACCCUG
3. ACAAAU

Result:
1. 0.225
2. 0.603
3. 0.311
